experiment: Sulfation of 3-OHBaP in incubations with rat liver S9; assay type: in vitro ADME; conditions: male, SD, pooled rat liver S9, pH 7.4

{"columns": ["compound", "Km at 70 min [µM]"],
 "data": [
  ["Oc1ccc2ccc3c4ccccc4cc4ccc1c2c43 [3-OHBaP, 3-hydroxybenzo[a]pyrene]", 17]
]}

----------
test: in vitro; type: in vitro ADME, rat; conditions: rat, pH 7.4, Km

{"columns": ["molecule", "unit_text", "Km at 30 min"],
 "data": [
  ["c1ccc2c(c1)cc1ccc3cccc4ccc2c1c34 [BaP, benzo[a]pyrene]", "µM", 34]
]}

----------
test: Glucuronidation of 3-OHBaP in incubations with rat liver S9; type: in vitro ADME; settings: male, SD, pooled rat liver S9, pH 7.4, glucuronidation of 3-OHBaP
measured_quantity: Km at 20 min (µM)

{"columns": ["compound", "assay_value"],
 "data": [
  ["Oc1ccc2ccc3c4ccccc4cc4ccc1c2c43 [3-OHBaP, 3-hydroxybenzo[a]pyrene]", 10]
]}
